These entries and their values trace back to patent EP1724268A1.

- Tested on: TGFβ signal
- protocol: TGFβ signal inhibitory activity, (SBE)4-Luc reporter in A549 cells (Test Examples 1A and 1B)
- Format: cell-based, human
- run_conditions: Homo sapiens, A549; test compound 10 µM; Reference Examples, Table 1B; read-out: TGFβ inhibition rate, %
Provide the reported inhibition at 10 µM of each item.
A number alone suffices; assume %.

Item: CNC(=O)c1cc(OC)ccc1Oc1ccnc2cc(OC)c(OC)cc12 [Compound r110] | inhibition at 10 µM: 93

The molecule identified as COc1cc2nccc(Oc3ccc(C)cc3C)c2cc1OC [r5] registered its inhibition at 10 µM at 56

Noted for CCOC(=O)c1cc(-n2cccc2)ccc1Oc1ccnc2cc(OC)c(OC)cc12 [Compound r90] : its inhibition at 10 µM reads 95

Record CCOC(=O)c1ccccc1Oc1ccnc2cc(OC)c(OC)cc12 [Compound r80] , field inhibition at 10 µM: 95

inhibition at 10 µM measured on COc1cc2nccc(Oc3ccc(C)cc3C(=O)C(C)(C)C)c2cc1OC [Compound r54] = 73

The value of inhibition at 10 µM measured for the molecule COc1cc2nccc(Oc3ccc4ccccc4c3C(C)=O)c2cc1OC [r42] turned out to be 93

So for CCOC(=O)c1ccccc1C(=O)c1ccnc2cc(OC)c(OC)cc12 [Compound r163] , the logged inhibition at 10 µM turned out to be 67

====

- Tested on: TGFβ signal
- protocol: TGFβ signal inhibitory activity, (SBE)4-Luc reporter in A549 cells (Test Examples 1A and 1B)
- Format: cell-based, human
- run_conditions: Homo sapiens, A549; 3 µM; compounds of Reference Examples (Test Example 1B); read-out: TGFβ inhibition rate, %
If the reported inhibition at 3 µM equals or exceeds 80%, assign label 1. If not, assign label 0.

Problem: Check this compound for inhibition at 3 µM at or above 80%: `COc1cc2c(Oc3cc(C)c(C)nc3-c3ccccc3)ccnc2cc1OCC(CO)CO`
Result: label 1

Problem: Dear colleague, could you confirm whether `COc1cc2nccc(Oc3ccc(OCc4ccccc4)cc3C(C)=O)c2cc1OC` has inhibition at 3 µM at or above 80%?
Result: label 0

Problem: Check this compound for inhibition at 3 µM at or above 80%: `COc1cc2nccc(Oc3cc4ccccc4nc3C(C)=O)c2cc1OC`
Result: label 1

Problem: Is inhibition at 3 µM at least 80%? Consider `COc1cc2nccc(Oc3ccc(C)nc3/C=C/c3ccccc3)c2cc1OC`
Result: label 0

====

Record form. Attribute: Selectivity for BMP (times). Fill in for each entry.
- Tested on: BMP4 signal
- protocol: BMP signal inhibitory activity, p(GCCG)12-Luc reporter in HepG2 cells (Test Example 7)
- Assay type: cell-based, human
- run_conditions: Inhibitory activity against BMP4 signal (IC50)/Inhibitory activity against TGFβ signal (IC50); HepG2 reporter cells, BMP4 20 ng/ml, TGFβ-1 2 ng/ml, 4 hr
Please reply with the bare figure in times and do not write the unit itself.

Sample `CCc1ccc(Oc2ccnc3cc(C(N)=O)c(O)cc23)c(-c2ncccn2)n1` ; Selectivity for BMP (times) observed: 51

`CCc1ccc(Oc2ccnc3ccc(OCCOC(C)=O)cc23)c(-c2ccccn2)n1` yielded Selectivity for BMP (times) of 195

response.value for `Cc1ccc(Oc2ccnc3ccc(OCCO)cc23)c(-c2ncccn2)n1` (field: Selectivity for BMP (times)) = 21.4

Selectivity for BMP (times) measured on `CCc1ccc(Oc2ccnc3ccc(OCCO)cc23)c(-c2ccccn2)n1` = 308

`CCc1ccc(Oc2ccnc3ccc(OS(C)(=O)=O)cc23)c(-c2ccccn2)n1` has a reported Selectivity for BMP (times) of 72
